Tested on: Escherichia coli TOP10
Assay: shrunken log2 fold change of peptide-encoding DNA abundance (4.5 h post-induction vs induction); higher = less antimicrobial activity (less host growth inhibition)
Details: time post-induction: 4.5 h; library: site-saturation at positions 5, 18, 19, 20
Listed next: entries and their corresponding shrunken log2 fold change.

>  <residues>
RRIRMRPPRLPRPRPRPHMSPRP

>  <shrunken log2 fold change>
-0.123

$$$$
>  <residues>
RRIRRRPPRLPRPRPRPGYIPRP

>  <shrunken log2 fold change>
-0.177

$$$$
>  <residues>
RRIRVRPPRLPRPRPRPSCLPRP

>  <shrunken log2 fold change>
-0.618

$$$$
>  <residues>
RRIRDRPPRLPRPRPRPWCPPRP

>  <shrunken log2 fold change>
-0.422

$$$$
>  <residues>
RRIRARPPRLPRPRPRPMFMPRP

>  <shrunken log2 fold change>
0.749

$$$$
>  <residues>
RRIRIRPPRLPRPRPRPVDWPRP

>  <shrunken log2 fold change>
-0.0226

$$$$
>  <residues>
RRIRTRPPRLPRPRPRPCTKPRP

>  <shrunken log2 fold change>
0.0197

$$$$
>  <residues>
RRIRFRPPRLPRPRPRPKNEPRP

>  <shrunken log2 fold change>
-0.137

$$$$
>  <residues>
RRIRNRPPRLPRPRPRPLHYPRP

>  <shrunken log2 fold change>
-0.147

$$$$
>  <residues>
RRIRQRPPRLPRPRPRPFFTPRP

>  <shrunken log2 fold change>
-0.343

$$$$
>  <residues>
RRIRDRPPRLPRPRPRPKSMPRP

>  <shrunken log2 fold change>
-0.0219

$$$$
>  <residues>
RRIRLRPPRLPRPRPRPVRQPRP

>  <shrunken log2 fold change>
0.569

$$$$
>  <residues>
RRIRMRPPRLPRPRPRPLYMPRP

>  <shrunken log2 fold change>
-0.222

$$$$
>  <residues>
RRIRERPPRLPRPRPRPINVPRP

>  <shrunken log2 fold change>
0.017

$$$$
>  <residues>
RRIRARPPRLPRPRPRPEFVPRP

>  <shrunken log2 fold change>
1.05

$$$$
>  <residues>
RRIRMRPPRLPRPRPRPWFNPRP

>  <shrunken log2 fold change>
-0.243

$$$$
>  <residues>
RRIRGRPPRLPRPRPRPSRPPRP

>  <shrunken log2 fold change>
0.624

$$$$
>  <residues>
RRIRYRPPRLPRPRPRPDNVPRP

>  <shrunken log2 fold change>
-0.0165

$$$$
>  <residues>
RRIRFRPPRLPRPRPRPTVQPRP

>  <shrunken log2 fold change>
0.0692

$$$$
>  <residues>
RRIRERPPRLPRPRPRPLKTPRP

>  <shrunken log2 fold change>
-0.457

$$$$
>  <residues>
RRIRERPPRLPRPRPRPQCGPRP

>  <shrunken log2 fold change>
-0.43

$$$$
>  <residues>
RRIRRRPPRLPRPRPRPVHTPRP

>  <shrunken log2 fold change>
0.0317

$$$$
>  <residues>
RRIRRRPPRLPRPRPRPGVCPRP

>  <shrunken log2 fold change>
0.369

$$$$
>  <residues>
RRIRRRPPRLPRPRPRPGMAPRP

>  <shrunken log2 fold change>
0.339

$$$$
>  <residues>
RRIRDRPPRLPRPRPRPGWPPRP

>  <shrunken log2 fold change>
0.514

$$$$
>  <residues>
RRIRNRPPRLPRPRPRPLQKPRP

>  <shrunken log2 fold change>
-0.0108

$$$$
>  <residues>
RRIRTRPPRLPRPRPRPYTGPRP

>  <shrunken log2 fold change>
-0.0567

$$$$
>  <residues>
RRIRFRPPRLPRPRPRPCKIPRP

>  <shrunken log2 fold change>
-0.0538

$$$$
>  <residues>
RRIRERPPRLPRPRPRPLCTPRP

>  <shrunken log2 fold change>
-0.364

$$$$
>  <residues>
RRIRQRPPRLPRPRPRPMCNPRP

>  <shrunken log2 fold change>
-0.389

$$$$
>  <residues>
RRIRRRPPRLPRPRPRPRWCPRP

>  <shrunken log2 fold change>
0.0597

$$$$
>  <residues>
RRIRFRPPRLPRPRPRPEMKPRP

>  <shrunken log2 fold change>
0.0843

$$$$
>  <residues>
RRIRKRPPRLPRPRPRPLYYPRP

>  <shrunken log2 fold change>
-0.458

$$$$
>  <residues>
RRIRRRPPRLPRPRPRPTDVPRP

>  <shrunken log2 fold change>
-0.0348

$$$$
>  <residues>
RRIRSRPPRLPRPRPRPWCTPRP

>  <shrunken log2 fold change>
-0.255

$$$$
>  <residues>
RRIRFRPPRLPRPRPRPEHHPRP

>  <shrunken log2 fold change>
-0.306

$$$$
>  <residues>
RRIRIRPPRLPRPRPRPFFRPRP

>  <shrunken log2 fold change>
-0.636

$$$$
>  <residues>
RRIRPRPPRLPRPRPRPLKKPRP

>  <shrunken log2 fold change>
0.295

$$$$
>  <residues>
RRIRWRPPRLPRPRPRPNMPPRP

>  <shrunken log2 fold change>
-0.268

$$$$
>  <residues>
RRIRYRPPRLPRPRPRPHHHPRP

>  <shrunken log2 fold change>
-1.09

$$$$
>  <residues>
RRIRKRPPRLPRPRPRPFICPRP

>  <shrunken log2 fold change>
0.0135

$$$$

----------
System: Escherichia coli TOP10
Assay: shrunken log2 fold change of peptide-encoding DNA abundance (4.5 h post-induction vs induction); higher = less antimicrobial activity (less host growth inhibition)
Settings: time post-induction: 4.5 h; library: site-saturation at positions 5, 18, 19, 20
So basically every entry gets a class from its shrunken log2 fold change, ranges being bottom range (below -0.03), center range (-0.03 to below 0.2), top range (0.2 or more)

>  <residues>
RRIRKRPPRLPRPRPRPNERPRP

>  <target.desc>
Escherichia coli TOP10

>  <answer.label>
center range

$$$$
>  <residues>
RRIRVRPPRLPRPRPRPRSQPRP

>  <target.desc>
Escherichia coli TOP10

>  <answer.label>
top range

$$$$
>  <residues>
RRIRGRPPRLPRPRPRPTPPPRP

>  <target.desc>
Escherichia coli TOP10

>  <answer.label>
top range

$$$$
>  <residues>
RRIRIRPPRLPRPRPRPAGPPRP

>  <target.desc>
Escherichia coli TOP10

>  <answer.label>
center range

$$$$
>  <residues>
RRIRQRPPRLPRPRPRPGVFPRP

>  <target.desc>
Escherichia coli TOP10

>  <answer.label>
center range

$$$$
>  <residues>
RRIRERPPRLPRPRPRPARMPRP

>  <target.desc>
Escherichia coli TOP10

>  <answer.label>
center range

$$$$
>  <residues>
RRIRERPPRLPRPRPRPENKPRP

>  <target.desc>
Escherichia coli TOP10

>  <answer.label>
bottom range

$$$$
>  <residues>
RRIRDRPPRLPRPRPRPLPFPRP

>  <target.desc>
Escherichia coli TOP10

>  <answer.label>
bottom range

$$$$
>  <residues>
RRIRLRPPRLPRPRPRPCQWPRP

>  <target.desc>
Escherichia coli TOP10

>  <answer.label>
bottom range

$$$$
>  <residues>
RRIRVRPPRLPRPRPRPTCLPRP

>  <target.desc>
Escherichia coli TOP10

>  <answer.label>
top range

$$$$
>  <residues>
RRIRLRPPRLPRPRPRPGSFPRP

>  <target.desc>
Escherichia coli TOP10

>  <answer.label>
top range

$$$$
>  <residues>
RRIRRRPPRLPRPRPRPCCCPRP

>  <target.desc>
Escherichia coli TOP10

>  <answer.label>
center range

$$$$
>  <residues>
RRIRTRPPRLPRPRPRPMLCPRP

>  <target.desc>
Escherichia coli TOP10

>  <answer.label>
center range

$$$$
>  <residues>
RRIRLRPPRLPRPRPRPTIAPRP

>  <target.desc>
Escherichia coli TOP10

>  <answer.label>
bottom range

$$$$

----------
Test system: Escherichia coli TOP10;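 also: peptides expressed intracellularly from a pBAD plasmid library in pooled LB shake-flask culture, induced with 0.3% L-arabinose, DNA abundance read by NGS, three biological replicates, DESeq2 with apeglm shrinkage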
Experiment: shrunken log2 fold change of peptide-encoding DNA abundance (4.5 h post-induction vs induction); higher = less antimicrobial activity (less host growth inhibition)
Details: time post-induction: 4.5 h; library: site-saturation at positions 5, 18, 19, 20
So basically every entry gets a class from its shrunken log2 fold change, ranges being class 1: < -0.2; class 2: ≥ -0.2 and < 0.005; class 3: ≥ 0.005

>  <residues>
RRIRLRPPRLPRPRPRPDIGPRP

>  <answer.label>
class 2

$$$$
>  <residues>
RRIRCRPPRLPRPRPRPWNYPRP

>  <answer.label>
class 1

$$$$
>  <residues>
RRIRHRPPRLPRPRPRPEIHPRP

>  <answer.label>
class 3

$$$$
>  <residues>
RRIRNRPPRLPRPRPRPKVFPRP

>  <answer.label>
class 3

$$$$
>  <residues>
RRIRDRPPRLPRPRPRPSDAPRP

>  <answer.label>
class 1

$$$$
>  <residues>
RRIRCRPPRLPRPRPRPQMDPRP

>  <answer.label>
class 1

$$$$
>  <residues>
RRIRRRPPRLPRPRPRPYTVPRP

>  <answer.label>
class 1

$$$$
>  <residues>
RRIRHRPPRLPRPRPRPYNYPRP

>  <answer.label>
class 2

$$$$
>  <residues>
RRIRRRPPRLPRPRPRPHRCPRP

>  <answer.label>
class 3

$$$$
>  <residues>
RRIRYRPPRLPRPRPRPCDFPRP

>  <answer.label>
class 1

$$$$
>  <residues>
RRIRKRPPRLPRPRPRPVAPPRP

>  <answer.label>
class 3

$$$$
>  <residues>
RRIRCRPPRLPRPRPRPIRHPRP

>  <answer.label>
class 2

$$$$
>  <residues>
RRIRIRPPRLPRPRPRPSISPRP

>  <answer.label>
class 2

$$$$
>  <residues>
RRIRGRPPRLPRPRPRPHYWPRP

>  <answer.label>
class 3

$$$$
>  <residues>
RRIRDRPPRLPRPRPRPWKVPRP

>  <answer.label>
class 2

$$$$
>  <residues>
RRIRHRPPRLPRPRPRPCTNPRP

>  <answer.label>
class 1

$$$$
>  <residues>
RRIRYRPPRLPRPRPRPAIEPRP

>  <answer.label>
class 3

$$$$
>  <residues>
RRIRIRPPRLPRPRPRPNDVPRP

>  <answer.label>
class 2

$$$$
>  <residues>
RRIRQRPPRLPRPRPRPNHDPRP

>  <answer.label>
class 1

$$$$
>  <residues>
RRIRCRPPRLPRPRPRPERHPRP

>  <answer.label>
class 2

$$$$
>  <residues>
RRIRGRPPRLPRPRPRPKKDPRP

>  <answer.label>
class 3

$$$$
